Numbers sourced from patent EP0934303B1.

target.under.test: geranylgeranyl protein transferase (Rattus norvegicus, UniProt P53610+Q04631)
assay.name: GGPT IC50, inhibition of geranylgeranyl protein transferase, in vitro enzyme assay (procedure of WO 95/10516)
readout.type: IC50

# molecule, readout.type, measurement
data = [
    ("N=C(NCc1cccnc1)N1CCC(CC(=O)N2CCC(C3c4ccc(Cl)c(Br)c4CCc4cc(Br)cnc43)CC2)CC1 (centres unmarked) [Compound 31.0]", "IC50", "> 7.5 µM"),
    ("N#CN1CCC(CC(=O)N2CCC(C3c4ccc(Cl)c(Br)c4CCc4cc(Br)cnc43)CC2)CC1 (centres unmarked) [Compound 28.0]", "IC50", "> 9.6 µM"),
]
